- Target or test system: T1, LGR7 (UniProt Q9HBX9 1-757, limits assumed)
- T1 sequence (looked up): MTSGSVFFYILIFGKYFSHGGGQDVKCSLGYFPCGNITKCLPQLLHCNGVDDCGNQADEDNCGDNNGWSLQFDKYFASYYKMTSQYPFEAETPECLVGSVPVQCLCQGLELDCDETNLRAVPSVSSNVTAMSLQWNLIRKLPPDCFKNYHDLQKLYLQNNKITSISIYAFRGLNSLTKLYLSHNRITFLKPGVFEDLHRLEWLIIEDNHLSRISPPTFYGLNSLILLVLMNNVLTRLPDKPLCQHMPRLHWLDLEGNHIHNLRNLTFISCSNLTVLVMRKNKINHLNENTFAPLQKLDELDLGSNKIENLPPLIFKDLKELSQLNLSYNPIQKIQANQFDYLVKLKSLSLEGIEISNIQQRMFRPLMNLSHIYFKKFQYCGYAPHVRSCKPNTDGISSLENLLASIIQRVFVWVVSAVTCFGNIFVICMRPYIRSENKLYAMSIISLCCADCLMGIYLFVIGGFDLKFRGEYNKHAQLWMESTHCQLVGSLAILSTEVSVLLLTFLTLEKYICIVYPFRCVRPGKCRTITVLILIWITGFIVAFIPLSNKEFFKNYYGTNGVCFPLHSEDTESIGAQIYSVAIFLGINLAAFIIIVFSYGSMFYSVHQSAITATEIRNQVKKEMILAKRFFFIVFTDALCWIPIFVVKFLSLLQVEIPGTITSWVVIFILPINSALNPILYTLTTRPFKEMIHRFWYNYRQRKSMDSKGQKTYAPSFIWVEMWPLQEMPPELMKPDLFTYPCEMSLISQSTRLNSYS
- Test name: cell-based or functional assay
Listed here: items and their measured Activity.

Binder: Tev-Relaxin-B-S29C-FA1-C-Chain (ligand, lipid FA1 on the Cys at B-chain position 29 (from Br-FA1, Example 5)) HHHHHHHHENLYFQGSGGDSWMEEVIKLCGRELVRAQIAICGMSTWCKRSLSQEDAPQTPRPVAEIVPSFINKDTETINMMSEFVANLPQELKLTLSEMQPALPQLQQHVPVLKDSSLLFEEFKKLIRNRQSEAADSSPSELKYLGLDTHSRKKRQLYSALANKCCHVGCTKRSLARFC
Activity (nM): 21

Binder: GSGG-Relaxin-single-chain (ligand) GSGGDSWMEEVIKLCGRELVRAQIAICGMSTWSGGGRGGRQLYSALANKCCHVGCTKRSLARFC
Activity (nM): 1

Binder: Tev-Relaxin-B-S29C-single-chain (ligand) HHHHHHHHENLYFQGSGGDSWMEEVIKLCGRELVRAQIAICGMSTWCGGGRGGRQLYSALANKCCHVGCTKRSLARFC
Activity (nM): 11

Binder: Tev-Relaxin-B-S29C-FA1-single-chain (ligand, lipid FA1 on the Cys at B-chain position 29 (from Br-FA1, Example 5)) HHHHHHHHENLYFQGSGGDSWMEEVIKLCGRELVRAQIAICGMSTWCGGGRGGRQLYSALANKCCHVGCTKRSLARFC
Activity (nM): 29
